# Assay Procedure: binders of probe aFGF2 on microarray, primary screen, stem cell growth factor project, biochemical, small-molecule microarray, fluorescence 635/667 (AID 1067);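 further: measures binding of biotinylated aFGF2 protein to printed compounds on slides; z-score merges feature fluorescence and signal-to-noise across triplicate slides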
# Setup Conditions: higher = more signal
Could you please report measured composite z-score for the items listed next?

# example entries with known answers
molecule=C=CCOC(=O)[C@@H]1[C@H]2C(=O)O[C@H](c3ccccc3)[C@H](c3ccccc3)N2[C@H](c2ccc(OCCOC(=O)[C@@H]3C[C@@H]4C(=O)NCC(=O)N4[C@@H]3c3cccc(OCCO)c3)cc2)[C@@]12C(=O)Nc1ccc(I)cc12 endpoint_label="composite z-score" assay_value=-0.119
molecule=CC(C)N1C(=O)[C@@]2(c3ccc([N+](=O)[O-])cc3)CC(=O)N(CC34CC5CC(CC(C5)C3)C4)[C@@H]2c2ccc(CO)cc21 endpoint_label="composite z-score" assay_value=-0.188
molecule="O=C1OCCC=C[C@H]2OC34C=CCN(c5ccc6ccccc6c5)C(=O)[C@H]3N(CCCCCO)C(=O)[C@@H]4C12 (some centres undefined)" endpoint_label="composite z-score" assay_value=-0.116

Reported composite z-score, molecule "COCCCNC(=O)[C@@]1(CCC(=O)OC(C)(C)C)N=C(c2ccc(OCCCO)cc2)O[C@H]1c1ccccc1CN=[N+]=[N-]" : ____
-0.0724

* * *

# Assay Procedure: E. coli acrAB mutant growth effects, primary screen, E. coli filamentation inducers, strain DRC39, OD650, 24 h (AID 1178);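 further: growth measured as culture turbidity by optical density at 650 nm; test concentration not given here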
# Setup Conditions: higher = more signal, called active from +8 up or from −8 down
Binary call on z-score: label 1 from 0.8 upward, label 0 beneath that.

Illustrative cases are given below, each with its answer.
compound=COC(=O)C[C@@H]1C[C@H](C)[C@]2(O1)C(=O)N(Cc1ccccc1)c1ccc(NC(C)=O)cc12 class_assignment="label 0"
compound=O=C(CS)NCCCCCCNC(=O)[C@H]1C[C@H]2C(=O)NCC(=O)N2[C@H]1c1ccc(O)cc1 class_assignment="label 0"
compound=O=C1O[C@@H](c2ccccc2)[C@@H](c2ccccc2)N2[C@@H](c3ccc(O)cc3)[C@]3(C(=O)Nc4ccc(C#CC5(O)CCCCCC5)cc43)[C@@H](C(=O)N3CCCCCCC3)[C@H]12 class_assignment="label 0"
compound=CC(=O)NCCCC[C@@H]1NC(=O)[C@@H]2C[C@H](C(=O)NCCCCN(C)C)[C@H](c3ccc(O)cc3)N2C1=O class_assignment="label 1"
compound=Cc1ccc(S[C@]2(C(=O)NCCN3CCOCC3)CC(=O)N(Cc3cc(C(F)(F)F)cc(C(F)(F)F)c3)[C@@H]2c2ccc(CO)cc2I)cc1 class_assignment="label 0"

Now for a further compound.
Evaluate "COC(=O)C[C@H]1O[C@]2(C(=O)N(Cc3ccccc3)c3ccc(NC(C)=O)cc32)[C@@H](C)[C@@H]1[Si](C)(C)c1ccc(OC)cc1" : z-score at minimum 0.8?
label 0

* * *

# Assay Procedure: basal RPMI8226 viability, no added stimulus, profiling panel, cell-based, calcein-AM fluorescence, 48 h, PK04 Diversity Set (AID 1166);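 further: cells grown under basal conditions without added stimulus; test concentration not given here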
# Setup Conditions: RPMI8226 myeloma viability, higher = more signal
Endpoint Label: z-score
Answers are plain numbers.

# example entries with known answers
compound=NC(=O)NCC#Cc1ccc2c(c1)[C@]1(C(=O)N2)[C@H](C(=O)N2CCCCCCC2)[C@H]2C(=O)O[C@H](c3ccccc3)[C@H](c3ccccc3)N2[C@@H]1c1ccc(OCCO)cc1 endpoint_label=z-score assay_value=-0.365
compound="CCOC(=O)C1=CCC(c2ccc([N+](=O)[O-])cc2)N(S(=O)(=O)c2ccc(C)cc2)C1 (stereo not given)" endpoint_label=z-score assay_value=-1.17
compound=[N-]=[N+]=NCc1ccccc1C[C@]1(C(=O)O)N=C(c2ccc(OCCCO)cc2)O[C@H]1c1ccccc1 endpoint_label=z-score assay_value=-0.388
compound=CN(C)CCCNC(=O)[C@@]1(Cc2ccccc2I)c2ccccc2C(=O)N(Cc2ccccc2C(F)(F)F)[C@H]1c1ccc(CO)cc1 endpoint_label=z-score assay_value=-4.33
compound="O=C1OCCC=C[C@H]2OC34C=CCN(Cc5ccccc5)C(=O)[C@H]3N(CCCCCCO)C(=O)[C@@H]4C12 (stereo not given in full)" endpoint_label=z-score assay_value=0.581

# batch size: 3; output z-score per entry
1. C=CCOC(=O)[C@H]1[C@@H]2C(=O)O[C@@H](c3ccccc3)[C@@H](c3ccccc3)N2[C@@H](c2ccc(OCCOC(=O)[C@@H]3C[C@@H]4C(=O)N5CCC[C@H]5C(=O)N4[C@@H]3c3ccc(O)cc3)cc2)[C@]12C(=O)Nc1ccccc12
2. COc1ccc(C(=O)Nc2cccc(CN3C(=O)[C@]4(O[C@H](CC(=O)N5CCC[C@H]5CO)[C@@H]([Si](C)(C)c5ccc(OC)cc5)[C@@H]4C)c4ccccc43)c2)cc1
3. COCCCNC(=O)[C@@]1(c2ccc([N+](=O)[O-])cc2)CC(=O)N(CC23CC4CC(CC(C4)C2)C3)[C@@H]1c1ccc(CO)cc1

[0.876, -4.33, -2.42]

# batch size: 4; output z-score per entry
1. O=C/C=C/c1ccc(Cl)cc1
2. O=C1O[C@H](c2ccccc2)[C@H](c2ccccc2)N2[C@H]1[C@@H](C(=O)O)[C@]1(C(=O)Nc3ccc(C#CC4(O)CCCCCC4)cc31)[C@H]2c1ccc(OCCO)cc1
3. CCCCCCc1nc(CCCc2cc3c(c(CCCCCC)n2)[Si](C(C)C)(C(C)C)OC3)cc2c1[Si](C(C)C)(C(C)C)OC2
4. CCCC[C@@H]1C[C@H]1[C@@H](NC(=O)c1ccc(-c2ccccc2)cc1)c1ccc(-c2ccccc2)cc1

[0.45, -0.216, -4.35, -2.33]

# batch size: 3; output z-score per entry
1. COc1cccc(C(=O)O[C@H]2CC[C@]3(C)C4=C(CCC3C2(C)C)[C@]2(C)CC[C@H]([C@H](C)CCCC(C)C)[C@@]2(C)CC4)c1 (stereo not given in full)
2. O=c1cccc(C=Cc2ccccc2)o1
3. COC(=O)[C@@]1(Cc2ccc(OC)cc2)[C@H]2c3cc(C(=O)N4CCCC4)n(Cc4ccccn4)c3C[C@H]2CN1C(=O)c1ccccc1

[0.241, -0.743, -0.676]

* * *

# Assay Procedure: adipocyte viability effects, profiling panel, cell-based, 3T3-L1 adipocytes, calcein-AM fluorescence, 48 h, basal (AID 1163); further: test concentration not given here
# Setup Conditions: 3T3-L1 adipocytes viability, higher = more signal
Endpoint Label: z-score
Answers are plain numbers.

# example entries with known answers
compound="C=CCC(OC(C)=O)[C@@H]1[C@@H](N(Cc2ccc(-c3ccccc3)cc2)C(=O)Cc2ccc(F)cc2)c2cc(OCCCO)ccc2N1C(=O)c1ccc2ccccc2n1 (stereo partly specified)" assay_value=0.203
compound=C=C(C(=O)CC[C@H](OC(C)=O)c1ccc(OCCO)cc1)C(C)C assay_value=-0.38
compound=O=C1O[C@@H](c2ccccc2)[C@@H](c2ccccc2)N2[C@@H](c3ccc(O)cc3)[C@]3(C(=O)Nc4ccc(C#CC5(O)CCCCCC5)cc43)[C@@H](C(=O)N3CCCCCCC3)[C@H]12 assay_value=0.49

# batch size: 3; output z-score per entry
1. O=C1OCCC=C[C@H]2OC34C=CCN(c5ccc6ccccc6c5)C(=O)[C@H]3N(CCCCCO)C(=O)[C@@H]4C12 (stereo partly specified)
2. CC(=O)C1=CCC(c2ccccc2)N(S(=O)(=O)c2ccc(C)cc2)C1 (stereo unspecified)
3. O=C1N(CCS(=O)(=O)c2ccccc2)c2ccccc2C[C@@]12COC(c1ccc(OCCCO)cc1)=N2

[-0.691, 0.0159, 0.294]

* * *

# Assay Procedure: small-molecule microarray binders of probe aWnt5a, primary screen, biochemical, biotinylated probe, 635/667 nm fluorescence (AID 1113);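 further: score merges 667 nm fluorescence intensity with signal-to-noise per printed feature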
# Setup Conditions: higher = more signal
Binary call on composite z-score: fulfilled from -0.08 upward, not fulfilled beneath that.

molecule=CO[C@H]1O[C@H](CO)[C@@H](OC(=O)Nc2ccc(Oc3ccccc3)cc2)[C@H](OC(=O)Nc2ccccc2)[C@H]1OC(=O)Nc1ccccc1 class_assignment=fulfilled

Evaluate COc1cc(C(O)C2C=CC3C(=O)N(c4ccccc4)C(=O)C3N2Nc2ccc(C#N)cc2)cc(OC)c1OC (stereo unspecified) : composite z-score at minimum -0.08?
fulfilled

Consider next the molecule "[N-]=[N+]=NCc1ccccc1C[C@]1(C(=O)NCCN2CCOCC2)N=C(c2ccc(OCCCO)cc2)O[C@H]1c1ccccc1N=[N+]=[N-]" in the same way.
fulfilled

Consider next the molecule "COc1ccc([Si](C)(C)[C@H]2[C@H](CCn3cc(CCO)nn3)O[C@@]3(C(=O)N(Cc4ccc(N5CCOC5=O)cc4)c4ccccc43)[C@@H]2C)cc1" in the same way.
not fulfilled

Consider next the molecule C=CCC(OC(C)=O)[C@@H]1[C@@H](N(Cc2cc3ccccc3o2)C(=O)c2ccc(C)cc2)c2cc(OCCCO)ccc2N1C(=O)c1ccc2ccccc2c1 (stereo partly specified) in the same way.
fulfilled
